System: HeLa cells
TEST: HeLa cell inhibition assay (SRB cell viability)
Format: cell-based
TEST_SETTINGS: Homo sapiens, HeLa, 72 h, IC50 range
pIC50: −log10 of the molar value.
Assignment: determine reported pIC50 for the given compounds.

Below, 5 compounds whose answers are already recorded.
O=C(NO)c1cnc(N2CC3C(C2)C3NCc2ccc(F)cc2)nc1 (stereo not drawn) [Example 41] : 5.48 to 6.48
CC(CNC1C2CN(c3ncc(C(=O)NO)cn3)CC21)c1ccccc1 (stereo not drawn) [Example 24] : 5.48 to 6.48
O=C(NO)c1ccc(N2CC3CN(Cc4ccc5ccccc5c4)CC3C2)nc1 (stereo not drawn) [Example 87] : 5.48 to 6.48
O=C(NO)c1cnc(N2CC3C(C2)C3N(CCN2CCCCC2)S(=O)(=O)c2ccc3ccccc3c2)nc1 (stereo not drawn) [Example 53] : > 6.48
O=C(NO)c1cnc(N2CC3C(C2)C3NC(=O)c2ccccc2)nc1 (stereo not drawn) [Example 13] : 5.48 to 6.48

Below are some compounds; for each one, tell me its pIC50.
1. CC(C(=O)NC1C2CN(c3ncc(C(=O)NO)cn3)CC21)c1ccccc1 (stereo not drawn) [Example 10]
2. N#Cc1ccc(CNC2C3CN(c4ncc(C(=O)NO)cn4)CC32)cc1 (stereo not drawn) [Example 31]
3. O=C(NO)c1cnc(N2CC3CN(C(=O)CCCOc4ccccc4)CC3C2)nc1 (stereo not drawn) [Example 78]
4. O=C(NO)c1cnc(N2CC3CN(C(=O)c4ccc5ccccc5c4)CC3C2)nc1 (stereo not drawn) [Example 77]

Output:
1: 5.48 to 6.48; 2: 5.48 to 6.48; 3: < 5.48; 4: > 6.48

----------
Exercise: for every item that follows, state its recorded pIC50.
Tested on: HUT
TEST: HUT cell inhibition assay (WST-1 cell viability)
Type: cell-based
TEST_SETTINGS: HUT cells, 72-96 h, WST-1 assay, IC50 range
pIC50: −log10 of the molar value.

Some compounds with known pIC50 results, for comparison:
O=C(NO)c1cnc(N2CC3C(C2)C3N2CCc3ccccc3C2)nc1 (centres unmarked) : 5.48 to 6.48
O=C(NO)c1cnc(N2CC3C(C2)C3NS(=O)(=O)c2cc(C(F)(F)F)cc(C(F)(F)F)c2)nc1 (centres unmarked) : > 6.48

# return pIC50 for each item in the list
1. O=C(NO)c1cnc(N2CC3C(C2)C3NCc2cc(C(F)(F)F)cc(C(F)(F)F)c2)nc1 (centres unmarked)
2. O=C(NO)c1ccc(N2CC3CN(Cc4ccc5ccccc5c4)CC3C2)nc1 (centres unmarked)
3. O=C(NO)c1cnc(N2CC3C(C2)C3NCc2ccc(Cl)cc2)nc1 (centres unmarked)
4. O=C(NO)c1cnc(N2CC3C(C2)C3NCc2ccc(-c3ccccc3)cc2)nc1 (centres unmarked)

Output:
1: > 6.48; 2: 5.48 to 6.48; 3: > 6.48; 4: > 6.48

# batch: return pIC50 for each of the 2 compounds below
1. Cn1cc(CC(=O)NC2C3CN(c4ncc(C(=O)NO)cn4)CC32)c2ccccc21 (centres unmarked)
2. O=C(Cc1ccc(N2CCCS2(=O)=O)cc1)NC1C2CN(c3ncc(C(=O)NO)cn3)CC21 (centres unmarked)

Output:
1: 5.48 to 6.48; 2: < 5.48

----------
Exercise: state measured pIC50 for each of the compounds provided.
Test system: HeLa cells
TEST: HeLa cell inhibition assay (SRB cell viability)
Assay type: cell-based
TEST_SETTINGS: Homo sapiens, HeLa, 72 h, IC50 range
pIC50: −log10 of the molar value.

Below are worked cases with known answers.
O=C(NO)c1cnc(N2CC3C(C2)C3NCc2ccc(C(F)(F)F)cc2)nc1 (stereo not drawn) [Example 42] : 5.48 to 6.48
O=C(NO)c1cnc(N2CC3C(C2)C3NCc2cc(F)cc(F)c2)nc1 (stereo not drawn) [Example 28] : > 6.48
O=C(NO)c1cnc(N2CC3C(C2)C3NCc2ccccc2)nc1 (stereo not drawn) [Example 33] : > 6.48
O=C(NO)c1cnc(N2CC3C(CNCc4ccc5ccccc5c4)C3C2)nc1 (stereo not drawn) [Example 71] : 5.48 to 6.48
O=C(NO)c1cnc(N2CC3C(CNCc4ccc5ccccc5n4)C3C2)nc1 (stereo not drawn) [Example 74] : 5.48 to 6.48

Batch: pIC50 for all items listed.
1. CN(C1C2CN(c3ncc(C(=O)NO)cn3)CC21)S(=O)(=O)c1ccc2ccccc2c1 (stereo not drawn) [Example 45]
2. O=C(NO)c1cnc(N2CC(NS(=O)(=O)c3ccc4ccccc4c3)C2)nc1 [Example 70]

Output:
1: 5.48 to 6.48; 2: < 5.48

----------
Task for the reader: assign each of the following compounds its reported IC50.
Tested on: HeLa cells
TEST: HeLa cell inhibition assay (SRB cell viability)
Format: cell-based
TEST_SETTINGS: Homo sapiens, HeLa, 72 h, IC50 range

Would you please look over these solved cases?
O=C(NO)c1cnc(N2CC3C(C2)C3NS(=O)(=O)c2cc(C(F)(F)F)cc(C(F)(F)F)c2)nc1 (centres unmarked) [Example 3] : 331 to 3300 nM
O=C(NO)c1cnc(N2CCC3(CC2)CCN(S(=O)(=O)c2ccc4ccccc4c2)CC3)nc1 [Example 86] : > 3300 nM
O=C(NO)c1cnc(N2CC3C(C2)C3NC(=O)C2(c3ccccc3)CC2)nc1 (centres unmarked) [Example 9] : 331 to 3300 nM
Cc1nccn1CCN(C1C2CN(c3ncc(C(=O)NO)cn3)CC21)S(=O)(=O)c1ccc2ccccc2c1 (centres unmarked) [Example 47] : 331 to 3300 nM
O=C(Cc1ccc(N2CCCS2(=O)=O)cc1)NC1C2CN(c3ncc(C(=O)NO)cn3)CC21 (centres unmarked) [Example 6] : > 3300 nM
O=C(NO)c1cnc(N2CC3C(C2)C3N(CCN2CCCC2=O)S(=O)(=O)c2ccc3ccccc3c2)nc1 (centres unmarked) [Example 48] : 331 to 3300 nM
O=C(NO)c1cnc(N2CC3C(C2)C3NCc2csc3ccccc23)nc1 (centres unmarked) [Example 32] : < 330 nM
O=C(NO)c1cnc(N2CC3C(C2)C3NCc2cc(C(F)(F)F)cc(C(F)(F)F)c2)nc1 (centres unmarked) [Example 35] : < 330 nM

Record IC50 per entry; entries follow.
1. O=C(NO)c1cnc(N2CC3C(C2)C3NC(=O)c2ccc3occc3c2)nc1 (centres unmarked) [Example 16]
2. COc1ccc(CN2CC3CN(c4ncc(C(=O)NO)cn4)CC3C2)cc1 (centres unmarked) [Example 84]
3. O=C(NO)c1cnc(N2CC3C(C2)C3N(CCN2CCCC2)S(=O)(=O)c2ccc3ccccc3c2)nc1 (centres unmarked) [Example 46]
4. O=C(NO)c1cnc(N2CC3C(C2)C3N(Cc2ccc3ccccc3c2)C(=O)CCc2cccnc2)nc1 (centres unmarked) [Example 61]
5. O=C(NO)c1ccc(N2CC3C(C2)C3NCc2ccc3ccccc3c2)cc1 (centres unmarked) [Example 88]
6. Cn1cc(CC(=O)NC2C3CN(c4ncc(C(=O)NO)cn4)CC32)c2ccccc21 (centres unmarked) [Example 14]
7. O=C(NO)c1cnc(N2CC3C(C2)C3N(CCN2CCOCC2)S(=O)(=O)c2ccc3ccccc3c2)nc1 (centres unmarked) [Example 51]
8. O=C(NO)c1cnc(N2CC3C(C2)C3NCc2ccc(-c3ccccc3)cc2)nc1 (centres unmarked) [Example 27]

Output:
["331 to 3300 nM", "331 to 3300 nM", "< 330 nM", "331 to 3300 nM", "331 to 3300 nM", "331 to 3300 nM", "< 330 nM", "< 330 nM"]

Task: Query the reported IC50 for HeLa cells; item: O=C(NO)c1cnc(N2CC3CN(Cc4cc(F)cc(F)c4)CC3C2)nc1 (centres unmarked) [Example 83]
Output: 331 to 3300 nM

----------
Exercise: for every item that follows, state its recorded pIC50.
Tested on: HUT
TEST: HUT cell inhibition assay (WST-1 cell viability)
Type: cell-based
TEST_SETTINGS: HUT cells, 72-96 h, WST-1 assay, IC50 range
pIC50: −log10 of the molar value.

Solved entries:
O=C(NO)c1cnc(N2CC3C(C2)C3N2Cc3ccccc3CC2=O)nc1 (centres unmarked) : 5.48 to 6.48
CN(C1C2CN(c3ncc(C(=O)NO)cn3)CC21)S(=O)(=O)c1ccc2ccccc2c1 (centres unmarked) : > 6.48
O=C(NO)c1cnc(N2CC3C(C2)C3NCc2ccc3ccccc3c2)nc1 (centres unmarked) : > 6.48

Below are some compounds; for each one, tell me its pIC50.
1. O=C(NO)c1cnc(N2CC3C(C2)C3NCc2csc3ccccc23)nc1 (centres unmarked)
2. O=C(NO)c1cnc(N2CC3C(C2)C3NS(=O)(=O)c2cccs2)nc1 (centres unmarked)
3. O=C(NO)c1cnc(N2CC3C(C2)C3NCc2cccc(-c3ccccc3)c2)nc1 (centres unmarked)
4. O=C(NO)c1cnc(N2CC3C(C2)C3NCc2ccc(C(F)(F)F)cc2)nc1 (centres unmarked)

Output:
1. > 6.48
2. < 5.48
3. > 6.48
4. > 6.48
